Experimental system: CDK5/p25 (Homo sapiens, UniProt Q00535)
Construct: purchased Invitrogen PR8543B
Sequence (Q00535 whole entry): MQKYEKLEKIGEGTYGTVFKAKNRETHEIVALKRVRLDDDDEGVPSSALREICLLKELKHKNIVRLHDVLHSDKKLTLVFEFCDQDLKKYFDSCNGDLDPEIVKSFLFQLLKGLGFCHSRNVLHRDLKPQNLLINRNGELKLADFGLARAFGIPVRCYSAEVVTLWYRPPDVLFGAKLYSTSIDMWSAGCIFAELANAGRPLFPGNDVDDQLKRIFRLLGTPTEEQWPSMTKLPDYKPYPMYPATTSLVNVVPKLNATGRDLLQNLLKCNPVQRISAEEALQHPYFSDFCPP
Sequence (Q15078 99-307 partner limits assumed): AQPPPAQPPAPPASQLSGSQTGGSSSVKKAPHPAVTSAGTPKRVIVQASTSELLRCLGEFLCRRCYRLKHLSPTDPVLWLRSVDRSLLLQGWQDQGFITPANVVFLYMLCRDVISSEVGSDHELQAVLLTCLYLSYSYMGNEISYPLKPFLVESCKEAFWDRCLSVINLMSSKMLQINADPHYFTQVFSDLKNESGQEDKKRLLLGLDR
Measurement notes: Enzymatic assay for CDK5 (FRET based LANCE Ultra kinase assay)
Format: biochemical
Condition context: read-out: CDK5 enzymatic activity (IC50 range)

- Compound: "CC(C)c1cnn2c(NCc3ccccc3-c3cc4ccccc4[nH]3)nc(N3CCC(C(N)=O)CC3)nc12 [Compound 117]"
  IC50: "> 1000 nM"
- Compound: "CC(C)c1cnn2c(NCc3ccccc3OCc3ccccc3)nc(N3CCC(N)CC3)nc12 [Compound 57]"
  IC50: "100 to 1000 nM"
- Compound: "CC(C)c1cnn2c(NCc3ccccc3-n3cc4cc(F)ccc4n3)nc(N3CCC(N)CC3)nc12 [Compound 108]"
  IC50: "100 to 1000 nM"
- Compound: "CC(C)c1cnn2c(NCc3ccccc3-c3ccc4[nH]cnc4c3)nc(N3CCC(N)CC3)nc12 [Compound 123]"
  IC50: "< 100 nM"
- Compound: "CC(C)c1cnn2c(NCc3cccc(Oc4ccc(Cl)c(NC(=O)CCCN(C)C)c4)c3)nc(N3CCC(N)CC3)nc12 [Compound 94]"
  IC50: "100 to 1000 nM"
- Compound: "CNC(=O)c1ccc2nc(-c3ccccc3CNc3nc(N4CCC(N)CC4)nc4c(C(C)C)cnn34)cnc2c1 [Compound 153]"
  IC50: "100 to 1000 nM"
- Compound: "CC(C)c1cnn2c(N[C@H](C)c3ccccc3-c3cc4ccccc4[nH]3)nc(N3CCC(N)CC3)nc12 [Compound 188]"
  IC50: "> 1000 nM"
- Compound: "CC(C)c1cnn2c(NCc3ccccc3-c3cc4cccc(NC(=O)C5CC5)c4[nH]3)nc(N3CCC(N)CC3)nc12 [Compound 144]"
  IC50: "< 100 nM"
- Compound: "CC(C)c1cnn2c(NCc3ccccc3-c3cn4ccc(F)cc4n3)nc(N3CCC(N)CC3)nc12 [Compound 124]"
  IC50: "< 100 nM"
- Compound: "CC(C)c1cnn2c(NCc3ccccc3-c3ccc4c(c3)NC(=O)C(C)(C)O4)nc(N3CCC(N)CC3)nc12 [Compound 138]"
  IC50: "< 100 nM"
- Compound: "CC(C)c1cnn2c(NCc3ccccc3-c3cccs3)nc(N3CCC(N)CC3)nc12 [Compound 44]"
  IC50: "< 100 nM"
- Compound: "CC(C)c1cnn2c(NCc3ccccc3Nc3ccccc3)nc(N3CCC(N)CC3)nc12 [Compound 61]"
  IC50: "100 to 1000 nM"
- Compound: "CC(C)c1cnn2c(NCc3ccccc3-n3ccc(-c4ccccc4)n3)nc(N3CCC(N)CC3)nc12 [Compound 99]"
  IC50: "100 to 1000 nM"
- Compound: "CC(C)c1cnn2c(NCc3ccccc3-n3cccn3)nc([C@H]3CC[C@H](N)CC3)nc12 [Compound 25]"
  IC50: "< 100 nM"
- Compound: "CC(C)c1cnn2c(NCc3ccccc3-n3cccn3)cc(N3CCC(N)CC3)nc12 [Compound 1]"
  IC50: "100 to 1000 nM"
- Compound: "CC(C)c1cnn2c(NCc3c(Cl)cccc3-n3ccc(C(=O)N4CCNCC4)n3)nc(N3CCC(N)CC3)nc12 [Compound 198]"
  IC50: "100 to 1000 nM"
- Compound: "CC(C)c1cnn2c(NCc3ccccc3-n3cccn3)nc(-c3cccc(OC4CCNC4)c3)nc12 (racemic) [Compound 163]"
  IC50: "100 to 1000 nM"
- Compound: "CC(C)c1cnn2c(NCc3ccccc3-c3ccc4ccccc4n3)nc(OCC3CCNCC3O)nc12 (stereo not drawn) [Compound 218]"
  IC50: "> 1000 nM"
- Compound: "CC(C)c1cnn2c(NCc3ccccc3-c3cc4cccc(NC(=O)N(C)C)c4[nH]3)nc(N3CCC(N)CC3)nc12 [Compound 149]"
  IC50: "< 100 nM"
- Compound: "CC(C)c1cnn2c(NCc3ccccc3-n3cc(C(=O)N4CCN(C)CC4)cn3)nc(N3CCC(N)CC3)nc12 [Compound 154]"
  IC50: "< 100 nM"
- Compound: "CC(C)c1cnn2c(NCc3cccc4ncn(C)c34)nc(N3CCC(N)CC3)nc12 [Compound 16]"
  IC50: "< 100 nM"
- Compound: "N#Cc1cnn2c(NCc3ccccc3-n3cccn3)nc(N3CCC(N)CC3)nc12 [Compound 34]"
  IC50: "100 to 1000 nM"
- Compound: "CC(C)c1cnn2c(NCc3c(Cl)cccc3-n3ccc(C(=O)N4CCOCC4)n3)nc(N3CCC(N)CC3)nc12 [Compound 200]"
  IC50: "> 1000 nM"
- Compound: "CC(C)c1cnn2c(NCc3ccccc3-n3cccn3)nc(-c3ccc(Cl)c(OC4CCNCC4)c3)nc12 [Compound 173]"
  IC50: "100 to 1000 nM"
- Compound: "Cc1cccc(C)c1CNc1nc(N2CCC(N)CC2)nc2c(C(C)C)cnn12 [Compound 235]"
  IC50: "100 to 1000 nM"
- Compound: "CC(C)c1cnn2c(NCc3ccccc3-n3ccc(C(C)(C)O)n3)nc(N3CCC(N)CC3)nc12 [Compound 236]"
  IC50: "100 to 1000 nM"
- Compound: "CNC(=O)c1cccnc1CNc1nc(N2CCC(N)CC2)nc2c(C(C)(C)C)cnn12 [Compound 15]"
  IC50: "> 1000 nM"
- Compound: "CC(C)c1cnn2c(NCc3ccccc3-n3cccn3)nc(-c3ccc(C(=O)N4CCC(N)CC4)cc3)nc12 [Compound 172]"
  IC50: "100 to 1000 nM"
- Compound: "CCC(=O)Nc1cccc(Oc2cccc(CNc3nc(N4CCC(N)CC4)nc4c(C(C)C)cnn34)c2)c1 [Compound 86]"
  IC50: "< 100 nM"
- Compound: "Cc1cccc(-c2cc(C(C)(C)O)nn2C)c1CNc1nc(N2CCC(N)CC2)nc2c(C(C)C)cnn12 [Compound 231]"
  IC50: "> 1000 nM"
